Tested System: T1, cynomolgus monkey CD73 (on transfected CHOK1 cells) (cynomolgus monkey, UniProt A0A2K5V5U7 27-549)
T1 construct: whole, on cells; also called CHOK1-cCD73; CHOK1-CCD73
T1 sequence: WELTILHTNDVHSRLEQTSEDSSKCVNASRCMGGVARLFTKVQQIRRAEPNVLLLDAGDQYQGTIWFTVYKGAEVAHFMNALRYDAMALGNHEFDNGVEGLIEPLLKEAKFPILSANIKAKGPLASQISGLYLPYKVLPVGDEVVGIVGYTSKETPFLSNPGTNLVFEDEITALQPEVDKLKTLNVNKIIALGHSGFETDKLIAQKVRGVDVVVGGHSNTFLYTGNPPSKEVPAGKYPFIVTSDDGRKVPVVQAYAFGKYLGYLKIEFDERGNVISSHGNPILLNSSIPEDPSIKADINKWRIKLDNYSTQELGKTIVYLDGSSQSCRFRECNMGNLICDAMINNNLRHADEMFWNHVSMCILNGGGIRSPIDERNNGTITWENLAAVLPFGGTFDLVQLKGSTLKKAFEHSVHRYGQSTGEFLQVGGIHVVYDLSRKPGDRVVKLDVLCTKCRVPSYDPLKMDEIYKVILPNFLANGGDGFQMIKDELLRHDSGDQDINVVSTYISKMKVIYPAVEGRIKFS
Measurement Protocol: FACS on CHOK1-cCD73 cells
Measured Parameter: EC50 (nM)
Value expressed in nM; do not type the unit.

Lookup: Value lookup for EC50; key = mab038xhIgG1TM (clone 69C9E12), mouse-human chimeric anti-CD73 antibody (antibody, V domains shown, also called mAb038 chimeric antibody) VH: QVQLQQPGTELVNPGASVKLSCKASGYTFTSYWMHWVKQRPGQGLEWIGNINPSNGGTHYNEKFNNKATLTVDKSSSTAYMQLSSLTSEDSAVFYCARGDYAYDWYFTVWGTGTTVTVSS VL: DIVLTQSPASLAVSLGQRAIISCKASQSVSFAGTGLMHWYQQKPGQQPKLLIYRVSNLEAGIPTRFSGSGSRTDFTLNIHPVEEDDAATYYCQQNREFPWTFGGGTKLEIK
Found: 2.3

Lookup: Value lookup for EC50; key = mab044xhIgG1TM (clone 80H7D6), mouse-human chimeric anti-CD73 antibody (antibody, V domains shown, also called mAb044 chimeric antibody) VH: EVKLVESGGGLVQPGGSLRLSCAASGFTFTDYYMSWVRQPPGKALEWLGFIRNKADGSTTEYSASVKGRFTISRDNSQSILYLQMNALRPEDSATYYCTRSPIYFDNWYFDVWGTGTTVTVSS VL: DIVMSQSPSSLAVSVGEKVTMTCKSSQSLLYSNNQKNYLAWYQQKPGQSPKLLIYWASTRESGVPDRFTGSGSGTDFTLTLSSVKAEDLAVYYCQQYYSYPFTFGSGTKLEIK
Found: 7.6

Lookup: Value lookup for EC50; key = mab042xhIgG1TM (clone 77B9A3), mouse-human chimeric anti-CD73 antibody (antibody, V domains shown, also called mAb042 chimeric antibody) VH: QVQLQQSGAGLVKPGASVKLSCKASGYTFTNYWMHWVKQRPGQGLEWIGMIHPNSGSTNNNEKFKNKATLTVDKSSNTAYMQLSSLTSEDSAVYYCARFFFGGYPHYYALDYWGQGTSVTVSS VL: DIVMTQSQKFMSTTVGDRVSITCKASQNVGTAVAWYQQKPGQSPKLLIYSASDRYTGVPDRLTGSGSGTDFTLTISNVQSEDLADYFCQQYSSFPLFTFGSGTKLVIQ
Found: 5.9
